System: c-di-GMP
test-name: Binding affinity of peptides to c-di-GMP by isothermal titration calorimetry (ITC)
test-context: single amino acid deletion
decrease of c-di-GMP binding affinity compared to the peptide of SEQ ID NO: 12 reference
assay-metric: decrease of c-di-GMP binding affinity compared to the peptide of SEQ ID NO: 12

{"substance": "Ac-DRRRFNADYKGPRRRKAD-NH2 [SEQ ID NO: 35, AC-DRRRFNADYKGPRRRKAD-NH2]", "meas-value": "2 to 3 fold"}
{"substance": "Ac-DRRRFNSDYKGPRRRKAD-NH2 [SEQ ID NO: 36, AC-DRRRFNSDYKGPRRRKAD-NH2]", "meas-value": "2 to 3 fold"}
{"substance": "Ac-DRRRFNSAYKGPRRRKAD-NH2 [SEQ ID NO: 37, AC-DRRRFNSAYKGPRRRKAD-NH2]", "meas-value": "2 to 3 fold"}

----------
test-name: in vitro
Assay type: in vitro ADME, P. aeruginosa PAO1
test-context: cells or culture medium
Please respond with True when measured remaining at 2 h is strictly beneath 30%, and with False in all other cases.

{"substance": "Ac-ARRRFNSADYKGPRRRKAD-NH2 [compound 13]", "label-class": "False"}
{"substance": "Ac-DRARFNSADYKGPRRRKAD-NH2 [compound 15]", "label-class": "True"}
{"substance": "Ac-DRRRFNSADYKGPARRKAD-NH2 [compound 26]", "label-class": "True"}
{"substance": "Ac-DRRRANSADYKGPRRRKAD-NH2 [SEQ ID NO: 17, AC-DRRRANSADYKGPRRRKAD-NH2]", "label-class": "False"}
{"substance": "Ac-DRRRFNSADAKGPRRRKAD-NH2 [compound 22]", "label-class": "False"}
{"substance": "Ac-DRRAFNSADYKGPRRRKAD-NH2 [compound 16]", "label-class": "False"}
{"substance": "Ac-DARRFNSADYKGPRRRKAD-NH2 [compound 14]", "label-class": "True"}
{"substance": "Ac-DRRRFNSADYKGPRRRAAD-NH2 [compound 29]", "label-class": "True"}
{"substance": "Ac-DRRRFNSADYKGPRRRKAA-NH2 [compound 31]", "label-class": "True"}
{"substance": "Ac-DRRRFNSADYKGPRARKAD-NH2 [compound 27]", "label-class": "True"}
{"substance": "Ac-DRRRFNSAAYKGPRRRKAD-NH2 [compound 21]", "label-class": "True"}

----------
test-name: in vitro
Assay type: in vitro ADME, P. aeruginosa PAO1
test-context: cells or culture medium
Description: P. aeruginosa PAO1 lysate, which was used to test peptide stability, was prepared by the following procedure. 500 ml of cells grown overnight at 37°C were harvested by centrifugation at 5000 rpm, 10 min at 4°C. […] The stability of peptides was tested against P. aeruginosa PAO1 cell lysate. […] Samples were analyzed on 10-20% Mini-PROTEAN tris-tricine gels (BIO-RAD #4563115) according to manufacturer's recommended protocol. […]

{"substance": "Ac-DRRRFNSADYKGPRRAKAD-NH2 [compound 28]", "remaining at 2 h / %": 23}
{"substance": "Ac-DRRRFNSADYKGPRRRKAD-NH2 [SEQ ID NO: 12, AC-DRRRFNSADYKGPRRRKAD-NH2]", "remaining at 2 h / %": 32}
